From: patent US20210309978A1

tested on: esterase enzyme; experiment: Effect of metals on enzyme activity; format: biochemical, microflora of Ac1göl (Aci Lake); settings: 1 mM metal
ENDPOINT: Activity (%) (1 mM metal)
// return numeric value only (unit: %, not printed)

RECORD_SMILES: O=S(=O)([O-])[O-].O=S(=O)([O-])[O-].O=S(=O)([O-])[O-].[Al+3].[Al+3]
Activity (%) (1 mM metal): 91.2

[ask] # return recorded Activity (%) (1 mM metal) for entry O=S(=O)([O-])[O-].[Zn+2]
[reply] 6.1

[ask] Please supply the value of reported Activity (%) (1 mM metal) for the item [Ca+2].[Cl-].[Cl-]
[reply] 130.2
